Test system: U2OS
Test method notes: Incucyte cell viability with U2OS; further: unitless GR value; below 1 slowed growth and below 0 cell loss
Assay type: toxicity, cell-based
Protocol conditions: human, 18 h, 10 µM, compound concentration 10 uM, replicate number 2
Listing of entries alongside the reported Growth Rate.

# Compound, Assayed system, Growth Rate
measured = [
    ("Cc1cc(=O)oc2cc(NC(=O)[C@H](Cc3ccc(I)cc3)NC(=O)[C@H]3N[C@@H]4CC[C@H]3C4)ccc12.O=C(O)C(F)(F)F", "U2OS", 0.92),
    ("CN1CCC(F)(Cn2cnc(-c3ccc(F)cn3)c2-c2ccnc3[nH]ccc23)CC1", "U2OS", 0.94),
    ("CN[C@@H](C)C(=O)N[C@H](C(=O)N1CCC[C@H]1C(=O)Nc1snnc1-c1ccccc1)C1CCCCC1 [GDC-0152]", "U2OS", 0.98),
    ("CCCCCCCC/C=C\\CCCCCCCC(=O)NCCO [OLEOYLETHANOLAMIDE]", "U2OS", 0.74),
    ("CCCCCNC(=O)N1CCC(CN(Cc2ccc(Cl)cc2)Cc2ccc([N+](=O)[O-])s2)C1 (stereo not drawn) [SR9011]", "U2OS", 0.94),
    ("CN(C)CC#Cc1ccc2[nH]c3c(c2c1)-c1nc(N)ncc1CCC3", "U2OS", 0.45),
    ("CC1(C)C(=O)N([C@H]2CCc3c(O)cccc32)c2nc(Nc3cccc(CN4CCCC4)c3)ncc21", "U2OS", -0.3),
    ("Cc1ccc(C(=O)Nc2cc(N3CCN(C)CC3)cc(C(F)(F)F)c2)cc1-n1cc(-c2cnn(C)c2C)nn1.Cl", "U2OS", 0.73),
]

* * *

Listing of entries alongside the reported Growth Rate.
System: HEK-293T
Test method notes: Incucyte cell viability with HEK293T; further: unitless GR value; below 1 slowed growth and below 0 cell loss
Assay type: toxicity, cell-based
Protocol conditions: human, 6 h, 10 µM, compound concentration 10 uM, replicate number 1
Property: Growth Rate

# Smiles representation, Assay value
measured = [
    ("Cc1cc2c(cc(C(=O)N[C@H](CO)c3ccc(S(=O)(=O)CC(=O)O)cc3)n2C)c(Cl)c1Cl", 0.99),
    ("CC(C)(O)C(=O)N1CCN(c2ccc(C(F)(F)F)c(C3=C(c4c[nH]c5ccccc45)C(=O)NC3=O)c2)CC1", 0.81),
    ("Cl.O=C(NCCN1CCC2(CC1)C(=O)NCN2c1cccc(F)c1)c1ccc2ccccc2c1", -0.37),
    ("CC(C)CC(=O)Nc1cncc(-c2ccc3[nH]nc(-c4nc5c(-c6cccc(F)c6)cncc5[nH]4)c3c2)c1", -0.99),
]

* * *

Listing of entries alongside the reported Growth Rate.
System: Fibroblast
Test method notes: Incucyte cell viability with human fibroblast; further: unitless GR value; below 1 slowed growth and below 0 cell loss
Format: toxicity, cell-based
Protocol conditions: 6 h, 10 µM, compound concentration 10 uM, replicate number 2
Property: Growth Rate

# Compound, Property, Assay value
measured = [
    ("C[C@@H](Oc1cc(-n2cnc3ccc(OC4CCN(C)CC4)cc32)sc1C(N)=O)c1ccccc1Cl [GSK-579289A]", "Growth Rate", 1),
    ("CN(C)C/C=C/C(=O)Nc1cc2c(Nc3ccc(F)c(Cl)c3)ncnc2cc1OC[C@@H]1CCCO1", "Growth Rate", -0.39),
    ("NC1(c2ccc(-c3nc4c(O)ccnn4c3-c3ccccc3)cc2)CCC1", "Growth Rate", 0.35),
    ("CC1CN(CC(=O)N2CC(C)(C)c3nc(CO)c(Cc4ccc(F)cc4)cc32)C(CN2CCOCC2C)CN1 (stereo not given)", "Growth Rate", 0.4),
    ("COc1cc(-c2nn([C@H]3CC[C@H](N4CCN(C(C)=O)CC4)CC3)c3ncnc(N)c23)ccc1NC(=O)c1cc2ccccc2n1C", "Growth Rate", -0.77),
    ("Cc1cc(C)c(NC(=O)C2CC3CCC2C3)c(C)c1 (stereo not given)", "Growth Rate", -0.52),
    ("CC(C)n1cnc2c(Nc3cccc(Cl)c3)nc(N[C@H]3CCCC[C@@H]3N)nc21", "Growth Rate", -0.94),
    ("Nc1ncnc2c1c(COc1cccc(Cl)c1)nn2C1CCOCC1", "Growth Rate", 0.47),
    ("Fc1ccc(-c2nc(-c3ccc4ccccc4c3F)[nH]c2-c2ccncc2)cc1", "Growth Rate", -0.01),
    ("COC(=O)c1cc2c(cn1)[nH]c1ccccc12 [BETA-CCM]", "Growth Rate", -0.82),
    ("Nc1n[nH]c2nc(-c3ccc(NS(=O)(=O)c4cccc(Cl)c4Cl)cc3)cnc12", "Growth Rate", -1),
    ("N[C@@H]1CCCN(c2c(/C=C3\\SC(=O)NC3=O)cccc2-c2ccccc2)C1", "Growth Rate", 0.19),
    ("COc1cc2nc(-c3cc(F)ccc3O)nc(N[C@@H]3CNC[C@H]3C(C)(C)O)c2cc1OC.Cl.Cl", "Growth Rate", -1),
    ("O=C(CNCc1cc2ccccc2[nH]1)N[C@H]1CC[C@@H](c2nc3ccccc3[nH]2)CC1", "Growth Rate", 0.7),
    ("CCNc1ccc(-c2nn(-c3ccccc3C)c3c2C(C)Cc2nc(NC(=O)OC)sc2-3)cn1.O=C(O)C(F)(F)F (stereo not given)", "Growth Rate", -0.7),
    ("COc1ncc(-c2cc(-c3ncc(CN4C[C@@H](C)O[C@@H](C)C4)o3)c3cn[nH]c3c2)cc1NS(C)(=O)=O", "Growth Rate", -0.56),
    ("CC(C)(C[C@H]1CN(S(=O)(=O)c2cccc(C(F)(F)F)c2)c2cc(-c3cc(F)cc(OC(F)F)c3)ccc2O1)C(=O)O [CINTIRORGON]", "Growth Rate", 0.8),
    ("C[C@]12CC[C@@H]3c4ccc(O)cc4CC[C@H]3[C@@H]1C[C@H]1OC(=O)C[C@]12O", "Growth Rate", -0.98),
    ("N[C@@H]1CCCC[C@H]1Oc1ccc2ncc(-c3cc4ccccc4o3)n2n1", "Growth Rate", -0.77),
    ("COc1c(-c2cn(C3CCC(=O)NC3=O)nn2)csc1C(=O)N1CCCC1 (stereo not given)", "Growth Rate", 0.73),
    ("Cn1cc(NC(=O)c2ccc3nc4n(c3c2)CCCNC4=O)nc1C(=O)NC1CCCC1", "Growth Rate", 0.57),
    ("O=C(NNC(=O)c1ccc(CNS(=O)(=O)c2ccc(F)c(Cl)c2)cc1)c1ccccc1", "Growth Rate", -0.76),
    ("CC(C)S(=O)(=O)c1ccccc1Nc1nc(N[C@@H]2CCCN(CCCCCCCNC(=O)COc3cccc4c3C(=O)N(C3CCC(=O)N(C)C3=O)C4=O)C2)ncc1Cl (stereo not given in full)", "Growth Rate", 0.48),
    ("CCN1CCN(Cc2ccc(NC(=O)c3ccc(C)c(NC(=O)c4cncc(-c5cccs5)c4)c3)cc2C(F)(F)F)CC1", "Growth Rate", -1),
    ("CN(C(=O)c1cnn2cccnc12)c1cc2c(cc1N1CCOCC1)C(=O)N(C[C@@H](F)C(C)(C)O)C2", "Growth Rate", 0.95),
    ("CN1CCN(C(=O)c2ccc(N(C)c3ncc(C(F)(F)F)c(N[C@@H]4CCC[C@@H]4C(N)=O)n3)cc2)CC1.Cl", "Growth Rate", -0.99),
    ("O=C(Nc1cccc(Nc2nccc(Nc3cccc(C(F)(F)F)c3)n2)c1)C1CC1 [ANILINOPYRIMIDINE1]", "Growth Rate", -1),
    ("CC1(C)C(=O)N([C@H]2CCc3c(O)cccc32)c2nc(Nc3cccc(CN4CCCC4)c3)ncc21", "Growth Rate", -0.63),
    ("Cn1c(=O)n(CCCO)c(=O)c2c1nc(Oc1cccc(OC(F)(F)F)c1)n2Cc1ccc(Cl)cc1 [ZERENCOTREP]", "Growth Rate", -0.98),
    ("O=C(NCCN1CCOCC1)c1ccc2nn(CCOc3ccc(Cl)cc3)cc2c1", "Growth Rate", 0.87),
    ("Cc1ccc(NS(=O)(=O)c2ccc3c(c2)C2C=CCC2C(c2ccc(C(=O)O)cc2)N3)cc1C (stereo not given)", "Growth Rate", 0.01),
    ("COC(=O)c1sccc1S(=O)(=O)Nc1ccc(Nc2ccccc2)cc1OC", "Growth Rate", 0.48),
    ("COc1cc(OC)cc(-c2cc3cnc(N)nc3nc2NC(=O)NC(C)(C)C)c1", "Growth Rate", 0.11),
    ("Cc1ccc(-c2c(C(=O)CF)n(CCCO)c3ncnc(N)c23)cc1", "Growth Rate", -1),
    ("CNc1ncc2cc(-c3ccc(-c4cccc(C)n4)cc3Cl)c(=O)n(C[C@H]3OC[C@H](N)CO3)c2n1", "Growth Rate", 0.69),
]

* * *

Listing of entries alongside the reported Growth Rate.
Test system: Fibroblast
Test method notes: Incucyte cell viability with human fibroblast; further: unitless GR value; below 1 slowed growth and below 0 cell loss
Type: toxicity, cell-based
Protocol conditions: 0 h, 10 µM, compound concentration 10 uM, replicate number 1
Property: Growth Rate

# Compound, Property, Assay value
rows = [
    ("Cn1c(C2(NC(=O)c3ccc4c(C5CCCC5)c(-c5ncc(Br)cn5)n(C)c4c3)CCC2)nc2ccc(/C=C/C(=O)O)cc21", "Growth Rate", -1),
    ("Cn1c(SCc2ccc(C(C)(C)C)cc2)nc(N)cc1=O", "Growth Rate", 0.97),
    ("CN(C)C(=O)c1sc2nc(N3CCC(S(C)(=O)=O)CC3)cc(C(F)(F)F)c2c1N", "Growth Rate", -1),
    ("C[C@H](CCC(=O)O)[C@H]1CC[C@H]2[C@@H]3[C@H](O)C[C@@H]4C[C@H](O)CC[C@]4(C)[C@H]3C[C@H](O)[C@]12C", "Growth Rate", 0.6),
    ("Cc1cc(C)cc(C(=O)NOCCCCCC(=O)NO)c1", "Growth Rate", -0.28),
    ("Clc1cccc(-n2nnnc2NCc2ccccc2Oc2ccccn2)c1Cl", "Growth Rate", 0.89),
    ("CC(C)S(=O)(=O)c1ccccc1Nc1nc(N[C@@H]2CCCN(CCCCCCCNC(=O)COc3cccc4c3C(=O)N(C3CCC(=O)N(C)C3=O)C4=O)C2)ncc1Cl (stereo partly specified)", "Growth Rate", -1),
    ("CC(=O)O[C@H]1C(=O)[C@@]2(C)[C@H]([C@H](OC(=O)c3ccccc3)[C@]3(O)C[C@H](OC(=O)[C@H](O)[C@@H](NC(=O)c4ccccc4)c4ccccc4)C(C)=C1C3(C)C)[C@]1(OC(C)=O)CO[C@@H]1C[C@@H]2O", "Growth Rate", -1),
    ("CC(=O)c1c(C)c2cnc(Nc3ccc(N4CCNCC4)cn3)nc2n(C2CCCC2)c1=O", "Growth Rate", -0.2),
    ("CCN1CCN(Cc2ccc(Nc3ncc(F)c(-c4cc(F)c5nc(C)n(C(C)C)c5c4)n3)nc2)CC1", "Growth Rate", -1),
    ("Cc1cc(Cn2c(N3CC4(CNC4)C3)nc3c(N4CCN(C)CC4)cc(Cl)cc32)cc(C)c1F", "Growth Rate", -1),
    ("COc1cc(N(C)c2ccnc3ccc(C(F)(F)F)cc23)cc(OC)c1OC", "Growth Rate", 0.97),
    ("COc1ccc(CC[C@@H](OC(=O)[C@@H]2CCCCN2C(=O)[C@H](c2cc(OC)c(OC)c(OC)c2)C2CCCCC2)c2cccc(OCCN3CCOCC3)c2)cc1OC", "Growth Rate", -1),
    ("CN(CCCCCCC1=C(c2cc(F)cc(F)c2)CCCc2cc(O)ccc21)CCCCS(=O)(=O)CCCC(F)(F)F", "Growth Rate", -1),
    ("O=C(O)/C=C/c1ccc(Cn2ccnc2)cc1", "Growth Rate", -1),
    ("COc1cc(-c2cncc(-c3ccc(N4CCN(C(C)C)CC4)cc3)c2C)cc(F)c1C(=O)N1CCCC1", "Growth Rate", -0.08),
    ("O=C(Nc1cc(C(F)(F)F)cc(C(F)(F)F)c1)c1cc(Cl)ccc1O", "Growth Rate", -0.62),
    ("Cc1ncsc1-c1ccc(CNC(=O)[C@@H]2C[C@@H](O)CN2C(=O)[C@@H](NC(=O)CCCCNC(=O)c2ccc(-c3ccc(N4CCN(C)CC4)c(NC(=O)c4c[nH]c(=O)cc4C(F)(F)F)c3)cc2)C(C)(C)C)cc1", "Growth Rate", 0.97),
    ("COC(=O)c1cc2c(cn1)[nH]c1ccccc12", "Growth Rate", 0.3),
    ("CCOC(=O)c1ccc(CN(Cc2ccc(-c3cccc(S(C)(=O)=O)c3)cc2)S(=O)(=O)c2c(C)cc(C)cc2C)o1", "Growth Rate", 0.32),
    ("O=S1(=O)NCN(C2CC2)c2ccc(F)cc21", "Growth Rate", 0.5),
    ("CC(C)N(C(=O)C1CCOCC1)c1cc(F)c(Oc2ncc(Cn3nccn3)cc2C(F)(F)F)cc1C(=O)O", "Growth Rate", 0.24),
    ("COc1cc(C(=O)O)ncc1C#Cc1ccccc1NS(=O)(=O)c1cccc2c(N(C)C)ccnc12", "Growth Rate", -1),
    ("Cn1ccc(Cn2cnc(-c3ccc(F)cc3)c2-c2ccnc3[nH]ccc23)n1", "Growth Rate", 0.19),
    ("CN(C1CCc2c(c3ccccc3n2CC(=O)O)C1)S(=O)(=O)c1ccc(F)cc1 (stereo unspecified)", "Growth Rate", -0.98),
    ("c1ccc(Cn2c(N3CCNCC3)nc3ccccc32)cc1", "Growth Rate", -0.1),
    ("C[C@@H](CO)CCC[C@@H](C)[C@H]1CC[C@H]2[C@@H]3CC=C4C[C@@H](O)CC[C@]4(C)[C@H]3CC[C@]12C", "Growth Rate", 0.73),
    ("CCCCC(C)(O)C/C=C/[C@H]1[C@H](O)CC(=O)[C@@H]1CCCCCCC(=O)O (stereo partly specified)", "Growth Rate", -1),
    ("O=C(Nc1cccc(Nc2nccc(Nc3cccc(C(F)(F)F)c3)n2)c1)C1CC1", "Growth Rate", -1),
    ("Cc1ccccc1C1C(=O)N(C)c2cnc(Nc3ccc(S(N)(=O)=O)cc3)nc2N1C (stereo unspecified)", "Growth Rate", -0.58),
    ("CC[C@H](NC(=O)[C@H](C)NC)C(=O)N1C[C@@H](O)C[C@H]1Cc1c(-c2[nH]c3cc(F)ccc3c2C[C@@H]2C[C@H](O)CN2C(=O)[C@H](CC)NC(=O)[C@H](C)NC)[nH]c2cc(F)ccc12", "Growth Rate", -0.44),
]

Data provenance is ChEMBL document CHEMBL5303304.
